Biological target: T1, human gastric inhibitory peptide receptor (GIPR) (human, UniProt P48546 22-466)
T1 sequence (looked up): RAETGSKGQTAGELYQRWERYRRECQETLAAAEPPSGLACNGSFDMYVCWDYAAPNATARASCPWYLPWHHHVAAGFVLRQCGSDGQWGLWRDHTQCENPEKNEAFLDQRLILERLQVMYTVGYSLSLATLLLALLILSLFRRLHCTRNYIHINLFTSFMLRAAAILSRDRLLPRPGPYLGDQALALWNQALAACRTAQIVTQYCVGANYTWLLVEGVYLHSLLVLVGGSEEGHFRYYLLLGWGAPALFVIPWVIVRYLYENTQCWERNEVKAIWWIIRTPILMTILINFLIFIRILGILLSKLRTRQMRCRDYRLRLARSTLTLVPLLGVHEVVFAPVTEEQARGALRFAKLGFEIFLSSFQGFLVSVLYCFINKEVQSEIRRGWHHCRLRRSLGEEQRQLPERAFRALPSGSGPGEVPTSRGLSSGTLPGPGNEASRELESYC
Experiment: cell-based or functional assay

>  <BINDER>
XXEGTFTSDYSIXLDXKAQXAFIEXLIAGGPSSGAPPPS (D-Tyr1; Aib2; αMeL13; Orn16; K17 conjugated to (2-[2-(2-Amino-ethoxy)-ethoxy]-acetyl)2-(γ-Glu)-CO-(CH2)16-CO2H; Aib20; αMeY25; C-terminal amide) [Example 377]

>  <UNIT OF MEASUREMENT>
nM

>  <hGIPR cAMP Rel EC50>
0.0544

$$$$
>  <BINDER>
XXEGTFTSDYSIXLDXKAQXEFIEYLIAGGPSSG (D-Tyr1; Aib2; αMeL13; Orn16; K17 conjugated to (2-[2-(2-Amino-ethoxy)-ethoxy]-acetyl)2-(γ-Glu)-CO-(CH2)18-CO2H; Aib20; C-terminal amide) [Example 370]

>  <UNIT OF MEASUREMENT>
nM

>  <hGIPR cAMP Rel EC50>
0.117

$$$$
>  <BINDER>
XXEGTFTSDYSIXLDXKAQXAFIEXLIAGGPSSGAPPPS (D-Tyr1; Aib2; αMeL13; Orn16; K17 conjugated to (2-[2-(2-Amino-ethoxy)-ethoxy]-acetyl)2-(γ-Glu)-CO-(CH2)18-CO2H; Aib20; αMeY25; C-terminal amide) [Example 366]

>  <UNIT OF MEASUREMENT>
nM

>  <hGIPR cAMP Rel EC50>
0.0889

$$$$
>  <BINDER>
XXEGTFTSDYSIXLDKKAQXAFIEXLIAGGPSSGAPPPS (D-Tyr1; Aib2; αMeL13; K17 conjugated to (2-[2-(2-Amino-ethoxy)-ethoxy]-acetyl)2-(γ-Glu)-CO-(CH2)18-CO2H; Aib20; αMeY25; C-terminal amide) [Example 365]

>  <UNIT OF MEASUREMENT>
nM

>  <hGIPR cAMP Rel EC50>
0.0678

$$$$
>  <BINDER>
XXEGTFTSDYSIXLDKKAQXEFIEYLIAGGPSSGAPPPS (D-Tyr1; Aib2; αMeL13; K17 conjugated to (2-[2-(2-Amino-ethoxy)-ethoxy]-acetyl)-(γ-Glu)-CO-(CH2)18-CO2H; Aib20; C-terminal amide) [Example 378]

>  <UNIT OF MEASUREMENT>
nM

>  <hGIPR cAMP Rel EC50>
0.067

$$$$
>  <BINDER>
XXEGTFTSDYSIXLDXKAQXDFIEYLIAGGPSSGAPPPS (D-Tyr1; Aib2; αMeL13; Orn16; K17 conjugated to (2-[2-(2-Amino-ethoxy)-ethoxy]-acetyl)2-(γ-Glu)-CO-(CH2)18-CO2H; Aib20; C-terminal amide) [Example 369]

>  <UNIT OF MEASUREMENT>
nM

>  <hGIPR cAMP Rel EC50>
0.166

$$$$
>  <BINDER>
XXEGTFTSDYSIXLDKKAQXAFVXYLIAGGPSSGAPPPS (D-Tyr1; Aib2; αMeL13; K17 conjugated to (2-[2-(2-Amino-ethoxy)-ethoxy]-acetyl)2-(γ-Glu)-CO-(CH2)18-CO2H; Aib20; D-Glu24; C-terminal amide) [Example 361]

>  <UNIT OF MEASUREMENT>
nM

>  <hGIPR cAMP Rel EC50>
0.401

$$$$
>  <BINDER>
XXEGTFTSDYSIXLDKKAQXEFIEXLIEGGPSSGAPPPS (D-Tyr1; Aib2; αMeL13; K17 conjugated to (2-[2-(2-Amino-ethoxy)-ethoxy]-acetyl)2-(γ-Glu)-CO-(CH2)18-CO2H; Aib20; αMeY25; C-terminal amide) [Example 379]

>  <UNIT OF MEASUREMENT>
nM

>  <hGIPR cAMP Rel EC50>
0.079

$$$$
>  <BINDER>
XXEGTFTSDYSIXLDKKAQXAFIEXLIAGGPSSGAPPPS (D-Tyr1; Aib2; αMeL13; K17 conjugated to (2-[2-(2-Amino-ethoxy)-ethoxy]-acetyl)-(γ-Glu)-CO-(CH2)18-CO2H; Aib20; αMeY25; C-terminal amide) [Example 373]

>  <UNIT OF MEASUREMENT>
nM

>  <hGIPR cAMP Rel EC50>
0.185

$$$$
>  <BINDER>
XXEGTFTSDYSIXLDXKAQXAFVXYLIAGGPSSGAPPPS (D-Tyr1; Aib2; αMeL13; Orn16; K17 conjugated to (2-[2-(2-Amino-ethoxy)-ethoxy]-acetyl)2-(γ-Glu)-CO-(CH2)16-CO2H; Aib20; D-Glu24; C-terminal amide) [Example 364]

>  <UNIT OF MEASUREMENT>
nM

>  <hGIPR cAMP Rel EC50>
0.351

$$$$
>  <BINDER>
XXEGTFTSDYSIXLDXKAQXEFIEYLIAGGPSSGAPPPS (D-Tyr1; Aib2; αMeL13; Orn16; K17 conjugated to (2-[2-(2-Amino-ethoxy)-ethoxy]-acetyl)-(γ-Glu)-CO-(CH2)18-CO2H; Aib20; C-terminal amide) [Example 371]

>  <UNIT OF MEASUREMENT>
nM

>  <hGIPR cAMP Rel EC50>
0.135

$$$$
>  <BINDER>
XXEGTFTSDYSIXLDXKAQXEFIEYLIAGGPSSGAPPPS (D-Tyr1; Aib2; αMeL13; Orn16; K17 conjugated to (2-[2-(2-Amino-ethoxy)-ethoxy]-acetyl)2-(γ-Glu)-CO-(CH2)16-CO2H; Aib20; C-terminal amide) [Example 368]

>  <UNIT OF MEASUREMENT>
nM

>  <hGIPR cAMP Rel EC50>
0.0757

$$$$
>  <BINDER>
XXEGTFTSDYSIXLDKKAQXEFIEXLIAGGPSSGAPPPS (D-Tyr1; Aib2; αMeL13; K17 conjugated to (2-[2-(2-Amino-ethoxy)-ethoxy]-acetyl)-(γ-Glu)-CO-(CH2)18-CO2H; Aib20; αMeY25; C-terminal amide) [Example 372]

>  <UNIT OF MEASUREMENT>
nM

>  <hGIPR cAMP Rel EC50>
0.0781

$$$$
